Reference for the values: the COVID Moonshot data (paper PMC11187573)

Target: SARS-CoV-2 Main Protease (SARS-CoV-2) (UniProt P0DTD1)
Settings: 20.0 µM
attribute-measured: inhibition (%)
Give the number; % is assumed, so skip it.

Recorded inhibition, per entry:
CC(C)Cn1cc(NC(=O)NC2=NN(c3ccccc3)CC2)c2ccccc2c1=O : 1.37
C=CC(=O)N(c1ccc(C(C)(C)C)cc1)C(C(=O)NC1CC(C(=O)OC)C1)c1cccnc1 (stereo not given) : 5.7
CC(=O)N1CCN(Cc2cn(-c3cccc(S(N)(=O)=O)c3)nn2)CC1 : -2.75
COc1cc(OC)nc(O[C@H](C(=O)O)C(OC)(c2ccccc2)c2ccccc2)n1 (stereo in doubt) : -28.4
CN(C)C/C=C/C(=O)NCc1c[nH]c2ccccc12 : 3.86
Cc1ccncc1NC(=O)[C@@H]1CNC(=O)O1 (stereo in doubt) : 1.35
C=CC(=O)N(c1ccc(C(C)(C)C)cc1)C(C(=O)NC(C)(C)C)c1cncc(OCC)c1 (stereo not given) : -1.87
COc1ccc2c(c1)CN(C(=O)CCl)C(c1ccccc1)C2 (stereo not given) : 97.4

Consider O=C1NC(c2cccnc2)C(=O)N1c1cccc(Cl)c1 (stereo not given) . Its measured inhibition is 18.1

Consider CN(C)c1ncccc1N(C)C(=O)C1CCOc2ccc(Cl)cc21 (stereo not given) . Its measured inhibition is 1.42
